Ref: ChEMBL document CHEMBL1961873

# Study system: Non-receptor tyrosine-protein kinase TYK2 (Homo sapiens) (UniProt P29597);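 also: each value is a mean of the inhibition readings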
# Sequence (P29597 whole entry): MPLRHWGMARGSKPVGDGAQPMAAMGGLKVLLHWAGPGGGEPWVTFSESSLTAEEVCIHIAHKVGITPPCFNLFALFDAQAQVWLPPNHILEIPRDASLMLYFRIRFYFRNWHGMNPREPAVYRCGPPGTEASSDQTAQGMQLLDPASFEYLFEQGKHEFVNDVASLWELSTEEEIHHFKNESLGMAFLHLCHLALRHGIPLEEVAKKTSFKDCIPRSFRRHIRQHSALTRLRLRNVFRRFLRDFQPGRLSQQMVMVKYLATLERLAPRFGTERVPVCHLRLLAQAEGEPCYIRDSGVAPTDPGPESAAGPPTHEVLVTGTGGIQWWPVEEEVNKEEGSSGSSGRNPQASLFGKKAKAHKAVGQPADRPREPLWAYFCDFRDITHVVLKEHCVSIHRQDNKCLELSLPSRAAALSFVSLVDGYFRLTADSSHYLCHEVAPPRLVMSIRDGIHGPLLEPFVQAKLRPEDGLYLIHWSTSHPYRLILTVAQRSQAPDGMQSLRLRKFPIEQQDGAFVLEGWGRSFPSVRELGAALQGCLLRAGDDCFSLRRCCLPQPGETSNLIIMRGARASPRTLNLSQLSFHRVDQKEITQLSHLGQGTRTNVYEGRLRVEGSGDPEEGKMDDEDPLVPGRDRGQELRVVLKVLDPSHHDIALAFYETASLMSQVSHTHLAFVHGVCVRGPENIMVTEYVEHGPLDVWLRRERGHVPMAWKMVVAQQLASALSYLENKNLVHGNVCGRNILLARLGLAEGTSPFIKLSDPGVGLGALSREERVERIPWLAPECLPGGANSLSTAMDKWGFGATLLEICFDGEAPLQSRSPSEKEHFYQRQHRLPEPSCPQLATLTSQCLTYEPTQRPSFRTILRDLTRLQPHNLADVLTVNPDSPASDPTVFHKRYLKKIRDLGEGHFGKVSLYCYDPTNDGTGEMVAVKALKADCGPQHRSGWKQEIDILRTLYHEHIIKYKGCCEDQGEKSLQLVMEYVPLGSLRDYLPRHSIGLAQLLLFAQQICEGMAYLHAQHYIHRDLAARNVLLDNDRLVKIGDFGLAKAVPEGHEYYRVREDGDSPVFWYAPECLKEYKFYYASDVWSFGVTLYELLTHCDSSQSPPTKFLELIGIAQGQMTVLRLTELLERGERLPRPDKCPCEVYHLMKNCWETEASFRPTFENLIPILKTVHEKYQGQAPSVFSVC
# Condition description: at 0.1 µM
Readout type: inhibition (%)
Unit % implied. Number only.

Noted for "O=C(NCC1CC1)c1ccc(-c2cccc(C(=O)NC3CC3)c2)cc1" : its inhibition reads -2.99

Noted for "CS(=O)(=O)CCNCc1ccc(-c2ccc3ncnc(Nc4ccc(OCc5ccccc5)c(Br)c4)c3c2)o1" : its inhibition reads -5.11

Noted for "COc1cccc(/C=N/Nc2ncnc3c2cnn3-c2cccc(OC)c2)c1" : its inhibition reads -3.27

Noted for "C#Cc1cccc(Nc2ncnc3ccc(OCCCCNCCS(C)(=O)=O)cc23)c1" : its inhibition reads -6.6

Noted for "NS(=O)(=O)c1ccc(Nc2cc(-c3ccc(O)c(F)c3)n[nH]2)cc1" : its inhibition reads 0.21
